Readings of IC50, lectin pathway C4 deposition, rat serum for the listed binders
biological target: rat MASP-2 (in rat serum) (rat, UniProt Q9JJS8 20-685); assay: cell-based or functional assay
Sequence (Q9JJS8 20-685 limits assumed): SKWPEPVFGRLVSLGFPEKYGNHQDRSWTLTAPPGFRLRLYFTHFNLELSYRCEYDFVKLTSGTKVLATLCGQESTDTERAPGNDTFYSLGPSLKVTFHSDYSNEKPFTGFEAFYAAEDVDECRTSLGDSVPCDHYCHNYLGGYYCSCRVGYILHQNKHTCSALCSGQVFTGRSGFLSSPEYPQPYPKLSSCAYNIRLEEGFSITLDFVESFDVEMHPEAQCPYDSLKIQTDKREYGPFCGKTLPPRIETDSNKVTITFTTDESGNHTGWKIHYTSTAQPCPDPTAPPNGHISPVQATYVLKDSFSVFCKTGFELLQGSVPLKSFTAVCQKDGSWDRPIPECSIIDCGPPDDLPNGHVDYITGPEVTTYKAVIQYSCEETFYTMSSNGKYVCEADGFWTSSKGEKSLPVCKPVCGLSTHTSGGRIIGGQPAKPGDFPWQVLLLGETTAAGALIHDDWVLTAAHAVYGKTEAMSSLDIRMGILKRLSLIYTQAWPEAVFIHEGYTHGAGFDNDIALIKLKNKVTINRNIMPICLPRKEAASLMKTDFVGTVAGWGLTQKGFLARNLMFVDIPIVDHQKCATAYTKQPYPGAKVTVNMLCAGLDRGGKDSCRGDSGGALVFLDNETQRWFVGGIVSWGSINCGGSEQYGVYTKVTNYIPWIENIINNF
Where no end group is shown, it is not given here.
I'd appreciate it if you included the unit after the number.

Req: Form field: reported IC50, lectin pathway C4 deposition, rat serum of EVO211a (designed binder) KPDFCFLEEDPGWCRALKRRYFYNNQTKQCERFGYGGCFGNMNNFVTLEECKNICEDG
Resp: 30.6 nM

Req: Also need EVO21 (designed binder, not fully specified; ends and bridges not checked, Modified TFPI-D2 Kunitz domain; made as m1) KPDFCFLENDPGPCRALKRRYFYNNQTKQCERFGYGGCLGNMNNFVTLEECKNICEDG , thanks.
Resp: 10.9 nM

Req: Also need EVO22a (designed binder, Modified TFPI-D2 Kunitz domain; made as m1) KPDFCFLENDPGPCRAAKRRYFYNNQTKQCERFYYGGCLGNMNNFVTLEECKNICEDG , thanks.
Resp: 10.6 nM

Req: Also need EVO214a (designed binder) KPDFCFLEEDPGPCRALKLRYFYNNQTKQCERFGYGGCFGNMNNFVTLEECKNICEDG , thanks.
Resp: 20.3 nM

Further cases:
Req: Form field: reported IC50, lectin pathway C4 deposition, rat serum of EVO211 (designed binder, not fully specified; ends and bridges not checked, Modified TFPI-D2 Kunitz domain; made as m1) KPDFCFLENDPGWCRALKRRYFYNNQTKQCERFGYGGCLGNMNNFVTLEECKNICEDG
Resp: 53.2 nM

Data provenance: patent US20260098080A1
